Test: Plasma concentrations of A1 and A2 after oral administration, mice
Type: in vivo
Settings: mouse, after CNCC 500 mg/m^2 p.o., 45 MIN, n = 10
ENDPOINT_NAME: concentration at 0.75 h (µM)
Respond with the bare value in µM.

>  <COMPOUND>
C[S+]([O-])CCNC(=O)N(CCCl)N=O (centres unmarked)

>  <DISPLAY_UNIT>
µM

>  <concentration at 0.75 h>
16.5

$$$$

// query Tell me the measured concentration at 0.75 h of C[S+]([O-])CCN(N=O)C(=O)NCCCl (centres unmarked) , please.
// result 32.8

###

Assay: Plasma concentrations of A1 and A2 after oral administration, rabbits
Type: in vivo
Settings: rabbit, after CNCC 500 mg/m^2 p.o., 4 H 30 MIN, n = 5
Protocol: The plasma absorption and clearance kinetics of the products A1 and A2 according to the invention were studied on different animal species after oral administration. A mixture A1 A2 in the proportions 70%/30% was used so as to be able to make a comparison with CNCC. The mixture A1 A2 and the CNCC were administered at equivalent doses and the plasma concentrations of A1 and A2 were measured as a function of time. cl (a) Experimental protocol […]
ENDPOINT_NAME: concentration at 4.5 h (nM)
Respond with the bare value in nM.

>  <COMPOUND>
C[S+]([O-])CCNC(=O)N(CCCl)N=O (centres unmarked) [Compound A2]

>  <concentration at 4.5 h / nM>
1000

$$$$

// query Tell me the measured concentration at 4.5 h of C[S+]([O-])CCN(N=O)C(=O)NCCCl (centres unmarked) [Compound A1] , please.
// result 2800

###

Reported concentration at 1 h values follow for various compounds
Experiment: Plasma concentrations of A1 and A2 after oral administration, mice
Assay type: in vivo
Settings: mouse, after mixture A1 A2 574 mg/m^2 p.o., 1 H, n = 10
Respond with the bare value in µM.

>  <COMPOUND>
C[S+]([O-])CCNC(=O)N(CCCl)N=O (centres unmarked)

>  <ENDPOINT_NAME>
concentration at 1 h

>  <VAL>
29.9

$$$$

Note: attention shifts to another entry.
// query Tell me the measured concentration at 1 h of C[S+]([O-])CCN(N=O)C(=O)NCCCl (centres unmarked) , please.
// result 88

###

Experiment: Plasma concentrations of A1 and A2 after oral administration, rats
Type: in vivo
Details: rat, after mixture A1 A2 574 mg/m^2 p.o., 45 MIN, n = 5
ENDPOINT_NAME: concentration at 0.75 h (µM)
Respond with the bare value in µM.

>  <COMPOUND>
C[S+]([O-])CCN(N=O)C(=O)NCCCl (centres unmarked)

>  <DISPLAY_UNIT>
µM

>  <concentration at 0.75 h>
33.9

$$$$

Note: attention shifts to another entry.
// query Tell me the measured concentration at 0.75 h of C[S+]([O-])CCNC(=O)N(CCCl)N=O (centres unmarked) , please.
// result 11.4

###

Assay: Plasma concentrations of A1 and A2 after oral administration, mice
Format: in vivo
Conditions: mouse, after CNCC 500 mg/m^2 p.o., 5 MIN, n = 10
Reported concentration at 5 min values follow for various compounds
Respond with the bare value in µM.

>  <COMPOUND>
C[S+]([O-])CCNC(=O)N(CCCl)N=O (centres unmarked)

>  <VAL>
5.3

$$$$

Note: attention shifts to another entry.
// query Tell me the measured concentration at 5 min of C[S+]([O-])CCN(N=O)C(=O)NCCCl (centres unmarked) , please.
// result 13.7

These measurements were taken from patent US5001158A.
